These entries and their values trace back to the RepoRT retention time repository.

- measurement_description: HILIC, Waters ACQUITY UPLC BEH Amide, 100 × 2.1 mm, 1.7 µm; A: water + 0.125% formic acid + 10 mM ammonium formate; B: 5% water + 95% acetonitrile + 0.125% formic acid + 10 mM ammonium formate; gradient (min/%B) 0/100 2/100 7.7/70 9.5/40 10.25/30 12.75/100 17/100
- study_conditions: stereoisomer not certain
reported_endpoint: LC retention time (min)

Completed entries (count: 2):
1. CC(=O)NCCc1c[nH]c2ccc(O)cc12 [N-Acetyl-5-hydroxytryptamine] ... 1.43
2. NCCO ... 7.15

a. NC(Cc1cccc(O)c1)C(=O)O (centres undefined) [3-Hydroxyphenylalanine]
b. COc1cc(C)c(Cc2cnc(N)nc2N)cc1OC
Ask: // which entry reports the smaller LC retention time, a or b ? Pick one; state its label.
Result: b
(b: 4.19 min, a: 7.44 min)

---

- measurement_description: HILIC, Waters ACQUITY UPLC BEH Amide, 100 × 2.1 mm, 1.7 µm; A: water + 0.125% formic acid + 10 mM ammonium formate; B: 5% water + 95% acetonitrile + 0.125% formic acid + 10 mM ammonium formate; gradient (min/%B) 0/100 2/100 7.7/70 9.5/40 10.25/30 12.75/100 17/100
- study_conditions: stereoisomer not certain
reported_endpoint: LC retention time (min)

1) Cn1cncc1CC(NC(=O)CCN)C(=O)O (centres undefined) [Anserine] ... 9.49

1. CC(C)OC(=O)CCCC=CCC1C(O)CC(O)C1CCC(O)CCc1ccccc1 (centres undefined) [Latanoprost]
2. NC(CCC(=O)NC(CS)C(=O)NCC(=O)O)C(=O)O (centres undefined) [Glutathione (reduced)]
Ask: // which entry reports the smaller LC retention time, 1 or 2 ? Pick one; state its label.
Result: 1

---

- measurement_description: HILIC, Waters ACQUITY UPLC BEH Amide, 100 × 2.1 mm, 1.7 µm; A: water + 0.125% formic acid + 10 mM ammonium formate; B: 5% water + 95% acetonitrile + 0.125% formic acid + 10 mM ammonium formate; gradient (min/%B) 0/100 2/100 7.7/70 9.5/40 10.25/30 12.75/100 17/100
- study_conditions: stereoisomer not certain
reported_endpoint: LC retention time (min)

1. COC1C(CO)OC(n2ccc(N)nc2=O)C1O (centres undefined) ... 5.09
2. CSCCC(NC=O)C(=O)O (centres undefined) ... 3.93
3. NC12CC3CC(CC(C3)C1)C2 ... 4.88
4. CCC(=O)Nc1ccc(Cl)c(Cl)c1 ... 1.08
5. CC(N)Cc1ccccc1 (centres undefined) ... 4.6
6. C=CCC1(C(C)C#CCC)C(=O)NC(=O)N(C)C1=O (centres undefined) ... 6.9
7. O=C(O)c1cccnc1 ... 4.01
8. CC(N)C(O)c1ccccc1 (centres undefined) ... 5.29
9. N#CC(O)c1ccc(O)cc1 (centres undefined) [4-Hydroxymandelonitrile] ... 2.63

---

- measurement_description: HILIC, Waters ACQUITY UPLC BEH Amide, 100 × 2.1 mm, 1.7 µm; A: water + 0.125% formic acid + 10 mM ammonium formate; B: 5% water + 95% acetonitrile + 0.125% formic acid + 10 mM ammonium formate; gradient (min/%B) 0/100 2/100 7.7/70 9.5/40 10.25/30 12.75/100 17/100
- study_conditions: stereoisomer not certain
reported_endpoint: LC retention time (min)

Completed entries (count: 3):
1) NC(N)=NCCCC(N)C(=O)N1CCCC1C(=O)O (stereo not given) [Arg-Pro] ... 9.51
2) Fc1ccc(C2CCNCC2COc2ccc3c(c2)OCO3)cc1 (stereo not given) [Paroxetine] ... 3.08
3) NC(Cn1ccc(=O)[nH]c1=O)C(=O)O (stereo not given) [Willardiine] ... 8.72

1. CC(C)N=c1cc2n(-c3ccc(Cl)cc3)c3ccccc3nc-2cc1Nc1ccc(Cl)cc1 [Clofazimine]
2. NC(CCOC(=O)CCC(=O)O)C(=O)O (stereo not given) [O-Succinylhomoserine]
Ask: // which entry reports the smaller LC retention time, 1 or 2 ? Pick one; state its label.
Result: 1
(1: 1.78 min, 2: 8.06 min)
